system: primary rat microglia; assay: Cell toxicity (dead cells, size <150 μm2) in LPS assay; settings: primary microglia HTS, LPS stimulation; decreased size (<150 μm^2) as marker of toxicity
Counter-ions that a name gives are not always drawn.
Measured LPS % cell toxicity by item
Use % as the unit, but write only the number.

Observe how each entry below is paired with its result.
compound: [O-][n+]1cccc(CO)c1 [Mepiroxol]
target-of-assay: primary rat microglia
LPS % cell toxicity [%]: 0

compound: CC(NCCc1ccc(O)cc1)C(O)c1ccc(O)cc1 (stereo not drawn) [Ritodrine hydrochloride, reference compound]
target-of-assay: primary rat microglia
LPS % cell toxicity [%]: 1

compound: CCCCC(CC)COC(=O)c1ccccc1O (stereo not drawn) [Octisalate]
target-of-assay: primary rat microglia
LPS % cell toxicity [%]: 0

For `N[C@H](C(=O)O)[C@@H]1CC(Cl)=NO1` the compound record lists LPS % cell toxicity as 4

Data point: CC(C(=O)O)c1ccc(CC2CCCC2=O)cc1 (stereo not drawn) ; LPS % cell toxicity = 0

Input `CC(=O)Oc1cc(C(C)C)c(OCCN(C)C)cc1C` . Output LPS % cell toxicity: 0

Reported LPS % cell toxicity ( CC(=O)OCC(=O)[C@H]1CC[C@H]2[C@@H]3CCC4=CC(=O)CC[C@]4(C)[C@H]3CC[C@]12C [Desoxycorticosterone acetate, reference compound] ) = 1

Reported LPS % cell toxicity for CCN(CC)CCNC(=O)COc1ccc(OC)cc1 [Mefexamide, Mefexamide Hydrochloride] was 0

LPS % cell toxicity reported for this compound `CCOC(=O)[C@H](CCc1ccccc1)N[C@@H](C)C(=O)N1Cc2cc(OC)c(OC)cc2C[C@H]1C(=O)O` : 1

###

system: fibrin-induced microglia activation; experiment: Image-based assay of fibrin-induced microglia activation (HTS and dose response); format: cell-based, rat; details: Rattus norvegicus, Microglia, read-out: Fibrin % inhibition
parameter-measured: inhibition at 10 µM (%)
The answer is to be given in %; state only the numeric part.

Below, each entry is followed by its recorded inhibition at 10 µM result.
compound: Nc1cc(C(Cl)=C(Cl)Cl)c(S(N)(=O)=O)cc1S(N)(=O)=O [Clorsulon]
target-of-assay: fibrin-induced microglia activation
inhibition at 10 µM (%): 0
//
compound: O=C(O)/C=C/C(=O)O [Fumaric Acid]
target-of-assay: fibrin-induced microglia activation
inhibition at 10 µM (%): 19
//
compound: CCCNCC(O)COc1ccccc1C(=O)CCc1ccccc1 (centres unmarked) [Propafenone]
target-of-assay: fibrin-induced microglia activation
inhibition at 10 µM (%): 16
//
compound: CCN[C@H]1C[C@H](C)S(=O)(=O)c2sc(S(N)(=O)=O)cc21 [Dorzolamide]
target-of-assay: fibrin-induced microglia activation
inhibition at 10 µM (%): -40
//
compound: C[C@]12CC[C@@H]3c4ccc(O)cc4CC[C@H]3[C@@H]1C[C@@H](O)[C@@H]2O [Estriol]
target-of-assay: fibrin-induced microglia activation
inhibition at 10 µM (%): -17
//
compound: CN(N=O)C(=O)N[C@@H](C=O)[C@@H](O)[C@H](O)[C@H](O)CO [Streptozocin]
target-of-assay: fibrin-induced microglia activation
inhibition at 10 µM (%): -30
//
compound: COc1cc2c(cc1OC)C(=O)C(CC1CCN(Cc3ccccc3)CC1)C2 (centres unmarked) [Donepezil]
target-of-assay: fibrin-induced microglia activation
inhibition at 10 µM (%): 5
//
compound: C[C@@H]1C[C@H]2[C@@H]3C[C@H](F)C4=CC(=O)C=C[C@]4(C)[C@@]3(F)[C@@H](O)C[C@]2(C)[C@@]1(O)C(=O)CO [Flumethasone, reference compound]
target-of-assay: fibrin-induced microglia activation
inhibition at 10 µM (%): 109

Here is the next item to consider.
Record CC(=O)NC[C@H]1CN(c2ccc(N3CCOCC3)c(F)c2)C(=O)O1 [Linezolid] ; system fibrin-induced microglia activation; inhibition at 10 µM = -18
